Data provenance: patent US8106055B2

Study system: bradykinin 1 receptor (B1R) of the rat (Rattus norvegicus, UniProt P97583)
Construct: expressed in transfected cells; host or cells: CHO K1 cells
Sequence (P97583 whole entry): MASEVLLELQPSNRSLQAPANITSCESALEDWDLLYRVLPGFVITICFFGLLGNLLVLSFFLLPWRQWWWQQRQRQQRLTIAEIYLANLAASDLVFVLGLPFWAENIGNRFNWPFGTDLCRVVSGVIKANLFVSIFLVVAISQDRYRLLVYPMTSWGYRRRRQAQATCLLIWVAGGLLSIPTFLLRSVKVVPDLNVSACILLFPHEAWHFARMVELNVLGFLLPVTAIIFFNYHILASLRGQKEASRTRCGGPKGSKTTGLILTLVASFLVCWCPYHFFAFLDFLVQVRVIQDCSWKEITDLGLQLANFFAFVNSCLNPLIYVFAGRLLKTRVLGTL
Procedure details: Functional investigation on the rat bradykinin 1 receptor (B1R), Ca2+ FLIPR assay in CHO K1 rB1R cells
Format: cell-based
Run conditions: CHO-K1, B1R antagonism rat; test substance 10 μM; Ca2+ FLIPR, CHO K1 rB1R cells; read-out: B1R Ant. r [10 μM] % Inhibition
Label no (0) if inhibition at 10 µM falls below 60%; label yes (1) in every other case.

[
  {
    "Compound": "COc1cc(C)c(S(=O)(=O)N(C)CCOCC(=O)NCC2CCC(C(CCc3ccccc3)N3CCOCC3)CC2)c(C)c1 (centres unmarked)",
    "Qualitative label": "yes (1)"
  },
  {
    "Compound": "CN(CCOCC(=O)NCC1CCC(C(CCc2ccccc2)N2CCOCC2)CC1)S(=O)(=O)c1c(Cl)cccc1Cl (centres unmarked)",
    "Qualitative label": "no (0)"
  },
  {
    "Compound": "CN(CCOCC(=O)NC1CCC(C(c2ccccc2)N2CCCC2)CC1)S(=O)(=O)c1ccc(Cl)cc1Cl (centres unmarked)",
    "Qualitative label": "no (0)"
  },
  {
    "Compound": "CN(C)C(c1cccs1)C1CCC(CCNC(=O)COCCN(C)S(=O)(=O)c2cccc(C(F)(F)F)c2)CC1 (centres unmarked)",
    "Qualitative label": "no (0)"
  },
  {
    "Compound": "COc1ccc(S(=O)(=O)N2Cc3ccccc3CC2COCC(=O)NC2CCC(C(c3cccs3)N(C)C)CC2)cc1 (centres unmarked)",
    "Qualitative label": "no (0)"
  },
  {
    "Compound": "CN(C)C(c1cccs1)C1CCC(CNC(=O)COCC2CCCN(S(=O)(=O)c3ccccc3)C2)CC1 (centres unmarked)",
    "Qualitative label": "no (0)"
  },
  {
    "Compound": "COc1cc(C)c(S(=O)(=O)N(C)CCOCC(=O)NC2CCC(C(CCc3ccccc3)N3CCOCC3)CC2)c(C)c1 (centres unmarked)",
    "Qualitative label": "yes (1)"
  },
  {
    "Compound": "O=C(COCC1CCCN(S(=O)(=O)c2c(Cl)cc(Cl)cc2Cl)C1)NCC1CCC(C(CCc2ccccc2)N2CCOCC2)CC1 (centres unmarked)",
    "Qualitative label": "yes (1)"
  },
  {
    "Compound": "COc1cc(C)c(S(=O)(=O)N2CCCCC2COCC(=O)NC2CCC(C(c3ccccc3)N3CCOCC3)CC2)c(C)c1 (centres unmarked)",
    "Qualitative label": "yes (1)"
  },
  {
    "Compound": "COc1ccc(S(=O)(=O)N2CCCCC2COCC(=O)NCCC2CCC(C(c3cccs3)N(C)C)CC2)c(OC)c1 (centres unmarked)",
    "Qualitative label": "no (0)"
  },
  {
    "Compound": "COc1ccc(S(=O)(=O)N2CCCCC2COCC(=O)NCCC2CCC(C(c3cccc(F)c3)N(C)C)CC2)cc1 (centres unmarked)",
    "Qualitative label": "yes (1)"
  },
  {
    "Compound": "COc1cc(C)c(S(=O)(=O)N2CCCC(OCC(=O)NCC3CCC(C(c4ccccc4)N(C)C)CC3)C2)c(C)c1C (centres unmarked)",
    "Qualitative label": "no (0)"
  },
  {
    "Compound": "O=C(COC1CCN(S(=O)(=O)c2c(Cl)cc(Cl)cc2Cl)C1)NC1CCC(C(CCc2ccccc2)N2CCOCC2)CC1 (centres unmarked)",
    "Qualitative label": "no (0)"
  }
]
